inhibition overview
# system-name: L-lactate dehydrogenase (Plasmodium falciparum (isolate CDC / Honduras))
# run-description: PfLDH activity inhibition – cell lysate, 3D7 strain, counter-screen for P. falciparum growth inhibition project (AID 2304);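 note: 0% = vehicle and 100% = reference inhibitor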
# stated-conditions: P. falciparum 3D7 crude extract, LDH APAD/NBT absorbance; at 2 µM; active compounds read high
endpoint: inhibition (%)

>>> recorded_number("C=CCOc1ccc2ccccc2c1CNCCCCCCNCc1c(OCC=C)ccc2ccccc12")
3
>>> recorded_number("CCCCCC(C)N=C(Nc1ccc(C#N)cc1O)Nc1ccccc1Br (stereo not given)")
-3
>>> recorded_number("CC(C)(C)c1cc2cc(Nc3ccnc4cc(-c5nccs5)ccc34)ccc2[nH]1")
-1
>>> recorded_number("Cc1nnc2c(NC(=O)NC3CCCC3)cc3cc(-c4ccc(CN(C)C)cc4)ccc3n12")
-2
>>> recorded_number("O=C(Nc1ccc(C(=O)Oc2cccc3ccccc23)cc1)N[C@@H](Cc1ccc(O)cc1)C(=O)NC1CCN(Cc2ccc(O)cc2)C1 (stereo not given in full)")
1
>>> recorded_number("Cc1cccc2[nH]c(-c3cccc(-c4ccc(NC(=O)c5ccncc5)cc4)c3)nc12")
-5
>>> recorded_number("COc1cc(NC(=O)/C=C/c2ccccc2OC(F)(F)F)cc(OCCN2CCCCC2)c1")
0
>>> recorded_number("COC(=O)C1=CNC=C(C(=O)OC)C1c1ccc(Cl)c([N+](=O)[O-])c1")
-4
>>> recorded_number("COc1ccc(-c2cc3ncnc(N4CCN(CCN5CCCC5)CC4)c3s2)cc1")
-2
>>> recorded_number("CCC(CC)n1c(C)cc2c3c(N)nc(N)nc3ccc21")
1

###

# run-description: inhibition of 3D7 malaria parasite growth – strain 3D7 (AID 2306);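 note: 0% = DMSO wells and 100% = chloroquine plus artemisinin control wells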
# stated-conditions: P. falciparum 3D7 erythrocytic growth, LDH absorbance, 72 h; at 2 µM; active compounds read high
Below, each entry is listed with its recorded growth inhibition.
endpoint: growth inhibition (%)

>>> recorded_number("O=C(/C=C/c1cccc(C(F)(F)F)c1)NCCCCCN1CCN(C(=O)Nc2ccc(Cl)c(Cl)c2)CC1")
89
>>> recorded_number("O=C(c1ccc(-c2ccc(Cl)cc2)o1)N1CCc2cc3nccc(N4CCN5CCC[C@H]5C4)c3cc21")
101
>>> recorded_number("COc1ccc(OCCn2cc(C(=O)c3ccco3)c3ccccc32)cc1")
98
>>> recorded_number("N#Cc1ccc(N(CCNS(=O)(=O)c2cc(Br)c(Cl)s2)Cc2ccccc2C(F)(F)F)cc1C(F)(F)F")
92
>>> recorded_number("O=C(NCCOc1ccccc1)[C@H](Cc1ccccc1)Nc1ccnc(NCC2CCCCC2)n1")
96
>>> recorded_number("CC(C)CCNCc1ccc(OCc2ccccc2COc2ccc(CNCCC(C)C)cc2I)c(I)c1")
101
>>> recorded_number("COc1ccc(CNC(=O)Nc2cc3cc(-c4ccc(CN5CCCC5)cc4)ccc3n3c(C)nnc23)cc1")
101
>>> recorded_number("CCc1c(CCNCCCCCCNCCc2ccc(OC)c(OC)c2CC)ccc(OC)c1OC")
100
>>> recorded_number("FC(F)(F)c1ccc2nc(-c3cccc(-c4ccc(CNCc5ccccc5)cc4)c3)[nH]c2c1")
101

###

# run-description: human hepatoma cell viability loss – ATP luminescence, cytotoxicity control for P. falciparum antimalarial project, primary screen (AID 2303);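 note: 0% = DMSO wells and 100% = digitonin-killed cells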
# stated-conditions: HepG2 viability, 24-48 h, at 10 µM, active compounds read high
Rule: measured inhibition below 20% gets Yes; anything equal to or greater than 20% gets No.

>>> cat("COc1ccc(CNCc2ccc(-c3cccc(-c4nc5c(C)cccc5[nH]4)c3)cc2)cc1")
"No"
>>> cat("Cc1c(C)n(C2CCCCC2)c2ncnc(OC3CCN(CC(=O)N4CCCC4)CC3)c12")
"No"
>>> cat("COc1ccc(NS(=O)(=O)c2cccc(C(=O)Nc3ccc(C(F)(F)F)cc3)c2)cc1N1CCN(CC(C)C)CC1")
"Yes"
>>> cat("CCC(C)(C)c1ccc(OCC(O)CN2CCCCC2)c(C(C)(C)CC)c1 (stereo not given)")
"Yes"
>>> cat("CC(C)(C)NCc1cc(Nc2ccnc3cc(Cl)ccc23)ccc1F")
"No"
>>> cat("NC(=O)c1ccccc1OCC(=O)Nc1cccc(-c2cccc(-c3nc4ccccc4[nH]3)c2)c1")
"No"
>>> cat("COC(=O)c1cccc(CNCc2cccc(-c3ccc(-c4nc5c(C)cccc5[nH]4)s3)c2)c1")
"Yes"
>>> cat("O=C(Nc1ccc(O)c(-c2nc3ccccc3[nH]2)c1)c1ccc([N+](=O)[O-])cc1")
"Yes"
>>> cat("C=CCOc1ccc(CNC2CCN(Cc3ccccc3)CC2)cc1Br")
"Yes"
>>> cat("O=C(CCc1cnc[nH]1)Nc1cccc(-c2ccc(-c3nc4ccc(F)cc4[nH]3)cc2)c1")
"Yes"

###

# system-name: Protein kinase 7 (PK7), Plasmodium falciparum 3D7 (PF3D7_0213400)
# run-description: inhibition of Plasmodium PK7 catalytic activity – biochemical, TCAMS antimalarial set, Kinase-Glo luminescence (AID 1159587)
# stated-conditions: recombinant PfPK7, Kinase-Glo ATP depletion luminescence
Calls of active or inactive are those of the source. No rule for the calls is given here.
endpoint: outcome

>>> result("O=C(/C=C/c1ccc(Cl)c(Cl)c1)NCCCCCN1CCC(NC(=S)Nc2ccc(Cl)c(Cl)c2)CC1")
"inactive"
>>> result("COc1ccc(CCN(C)CCCCc2ccc(NC(=O)c3cccc4c(=O)c5cc(F)ccc5sc34)cc2)cc1OC")
"inactive"
>>> result("CC(=O)Nc1cccc(C(=O)Nc2cccc(-c3ccc(-c4nc5ccc(F)cc5[nH]4)s3)c2)c1")
"inactive"
>>> result("O=C(NCCc1ccccc1)N(Cc1ccc(-c2cccc(CN3CCNCC3)c2)cc1)C1CCN(Cc2ccccc2)CC1")
"inactive"
>>> result("CCCCCCN1CCN(Cc2cccc(NC(=O)c3cc4ccccc4s3)c2)CC1")
"inactive"
>>> result("CC(CN(C)C)C(=O)Nc1ccc(-c2csc(-c3nc4ccccc4[nH]3)c2)cc1 (centres undefined)")
"inactive"
>>> result("COc1cc(NC(=O)/C=C/c2cc(F)cc(F)c2F)cc(OCCN2CCC(O)(c3ccccc3)CC2)c1")
"inactive"
>>> result("CN(C)CCNC(=O)NC1CN(c2ncnc3cc(-c4ccccc4)sc23)C1")
"inactive"
>>> result("O=C(CCc1cnc[nH]1)Nc1ccc(-c2ccc(-c3nc4ccccc4[nH]3)cc2)cc1")
"inactive"

###

# run-description: antimalarial activity against Dd2 strain (AID 2302);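 note: 0% = DMSO untreated growth and 100% = chloroquine plus artemisinin killed control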
# stated-conditions: P. falciparum Dd2 in RBCs, LDH growth readout, 72 h; at 2 µM; active compounds read high
endpoint: growth inhibition (%)

>>> recorded_number("O=C(/C=C/c1ccc(C(F)(F)F)cc1)NCCCCCN1CCN(C(=O)Nc2ccc(Cl)cc2)CC1")
-4
>>> recorded_number("CS(=O)(=O)c1ccc(CNCc2cccc(-c3cccc(-c4nc5ccccc5[nH]4)c3)c2)cc1")
47
>>> recorded_number("O=C(NCCCCN1CCN(c2cccc3c2OCCO3)CC1)c1ccc(NC(=O)c2cc(Cl)cc(Cl)c2)cc1")
89
>>> recorded_number("COc1cccc2c(NN=Cc3cccc([N+](=O)[O-])c3)ccnc12")
47
>>> recorded_number("CCn1c(-c2nonc2N)nc2c(-c3cccc(NC(=O)Nc4cccc(OC)c4)c3)ncc(OCCCN)c21")
69
>>> recorded_number("CC(C)CN(Cc1c(O)ccc2[nH]c(-c3ccc(F)cc3F)nc12)CC(C)C")
92
>>> recorded_number("Cc1cccc(S(=O)(=O)Nc2cccc(CCN3CCC(N4CCCCC4)CC3)c2)c1")
13
>>> recorded_number("CCOc1ccc(Br)cc1/C=C/C(=O)Nc1ccc2c(c1)CN(C)CCC2")
37
>>> recorded_number("Nc1nc(-c2ccc3c(Nc4ccc(F)c(Cl)c4)ccnc3c2)cs1")
88
>>> recorded_number("CCOC(=O)Nc1cc(-c2csc(N=C(N)N)n2)cc([N+](=O)[O-])c1")
88
>>> recorded_number("COc1ccc(C=NNc2ccnc3cc(F)c(C)cc23)c2ccccc12")
85
>>> recorded_number("O=C(/C=C/c1ccc(Cl)c(Cl)c1)NCCCCCCN1CCCN(C(=O)Nc2cc(Cl)cc(Cl)c2)CC1")
2
>>> recorded_number("CCOc1ccc2nc(C)cc(NN=Cc3cccc(F)c3)c2c1")
23
>>> recorded_number("COc1ccc(OC)c(C=NNc2nc3ccccc3[nH]2)c1")
28
>>> recorded_number("COc1c(C2CCN(CCCCNC(=O)c3ccc(-c4ccc(Cl)cc4)c(O)c3)CC2)ccc2c1CCCC2")
99
>>> recorded_number("CCNc1cc(C(=O)N[C@@H](Cc2ccccc2)[C@H](O)CN[C@H]2C[C@@H]3CC[C@H]2C3)cc(N2CCCCS2(=O)=O)c1")
73
>>> recorded_number("Cc1ccc(C(=O)Nc2ccc(Nc3ccnc4cc(-c5ccncc5)ccc34)cc2O)cc1")
100
>>> recorded_number("CCN(CC)CCCSc1ccc(-c2ccc(SCCCN(CC)CC)cc2)cc1")
30
>>> recorded_number("COc1ccccc1CCNc1nc(C)cc(N[C@@H](CC(C)C)C(=O)Nc2ccccc2)n1")
76
>>> recorded_number("CC(C)COc1ccc(Cl)cc1Cc1ccc(-c2nc3c(F)cccc3[nH]2)o1")
47
>>> recorded_number("FC(F)(F)c1ccc2nc(-c3cccc(-c4cccc(CN5CCN(c6ccncc6)CC5)c4)c3)[nH]c2c1")
99
>>> recorded_number("CCC(C)(C)c1ccc(Oc2ccc(NC(=O)Nc3ccc(Cl)c(Cl)c3)cc2)cc1")
97
>>> recorded_number("CN(C)CCOc1cc(NC(=O)Nc2ccc(-c3ccccc3)cc2)ccc1I")
45
>>> recorded_number("O=C(NCc1ccc(Cl)c(Cl)c1)c1ccc(-c2nc3ccc(Cl)cc3[nH]2)cc1")
22
>>> recorded_number("Cc1nn(-c2cccc(Cl)c2)c2c1C(C(=O)c1ccc3c(c1)OCO3)CC(=O)N2 (centres undefined)")
95
>>> recorded_number("NC(N)=NN=Cc1ccccc1OCc1ccccc1Cl")
30
>>> recorded_number("CON=C1CCC(Cn2ccnc2)(c2ccc(Cl)cc2Cl)CC1 (centres undefined)")
56
>>> recorded_number("CN(C)CCOc1ccc(N2CCN(CCCCNC(=O)c3ccc(NC(=O)c4ccc(Cl)cc4)cc3)CC2)cc1")
98
>>> recorded_number("Nc1nc(N)c2c(Cc3ccc(Br)cc3)cccc2n1")
20
>>> recorded_number("CCNc1cc(C(=O)N[C@@H](Cc2ccccc2)[C@H](O)CNC2CCCC2)cc(N2CCCC2=O)c1")
98
>>> recorded_number("CCOc1ccc2c(NN=Cc3cc(OC)c(OC)cc3OC)cc(C)nc2c1")
97
>>> recorded_number("COc1ccc(NC(=O)c2ccc(NC(=O)c3ccc(Cl)cc3)cc2)cc1N1CCN(C)CC1")
40
>>> recorded_number("Clc1ccc2c(NCCc3ccccc3)ccnc2c1")
99
>>> recorded_number("Cc1cc(N[C@@H](CC(C)C)C(=O)NCc2cccc(F)c2)nc(NCC2CCCCC2)n1")
70
>>> recorded_number("O=C(/C=C/c1ccc(Cl)c(Cl)c1)NCCCCCCN1CCCN(C(=O)Nc2cc(F)cc(F)c2)CC1")
-1
>>> recorded_number("Cc1cc(NN=Cc2ccc([N+](=O)[O-])cc2)c2ccc(F)cc2n1")
22
>>> recorded_number("COc1ccc(NC(=O)Nc2ccc(-c3cccc(-c4nc5ccccc5[nH]4)c3)cc2)cc1")
41
>>> recorded_number("CCC(C(=O)Nc1cc(=O)[nH]c2nc(-c3ccco3)nn12)c1ccccc1 (centres undefined)")
68
>>> recorded_number("CCCCCCCN1CC[C@@H](CCCc2ccnc3ccc(OCC4CCCNC4)cc23)[C@@H](CC)C1 (some centres undefined)")
100
